Hey, just so you know, these numbers are from PubChem BioAssay (NCI).

This listing pairs compounds with measured log10(TGI).
tested on: MDA-MB-231 breast; assay: NCI tumour cell line growth inhibition, 48 h
Measured endpoint: log10(TGI) (log10 of the value in µM)

Compound	log10(TGI)
CC(C)NCCCNC1=C(Cl)C(=O)c2ccccc2C1=O	1.26
CN([N-]C(=O)CC(=O)[N-]N(C)C(=S)c1ccccc1)C(=S)c1ccccc1.[Cu+2]	-0.88
Fc1ccc(C(OCCN2CC3CC2CN3CCCc2ccccc2)c2ccc(F)cc2)cc1 (centres undefined)	1.20
OC(CCN1CCN(CCOC(c2ccc(F)cc2)c2ccc(F)cc2)CC1)c1ccccc1 (centres undefined)	1.46
O=C1c2ccccc2C(=O)c2c1c(NCCNCCO)c1cc[nH]c1c2NCCNCCO	1.28
COc1cc2c3c(n(CCCn4cccn4)c(=O)c2cc1OC)-c1cc2c(cc1C3=O)OCO2	1.55
COc1cc2c(cc1O)CCN[C@@]21CS[C@H]2c3c(OC(C)=O)c(C)c4c(c3C(COC1=O)N1C2C2c3c(cc(C)c(OC)c3O)CC([C@@H]1O)N2C)OCO4 (some centres undefined)	-1.45
CNC1=C(Br)C(=O)C2=C(C1=O)C1C3=C(C(=O)C=CC3=O)C2c2ccccc21 (centres undefined)	0.69

====

tested on: 786-0 renal; assay: NCI tumour cell line growth inhibition, 48 h

Compound	TGI
COc1cc(C(C)c2cc3c(cc2OCCOCCOc2cc4c(cc2C(C)c2cc(OC)c(OC)c(OC)c2)OCO4)OCO3)cc(OC)c1OC (configuration not stated)	> 100 µM
COc1cc(CSc2ccc(O)cc2)cc(O)c1O	> 100 µM
COc1ccccc1OCc1nnc(SCC(=O)O)n1-c1ccccc1	> 100 µM
CCOC(=O)c1c(SCC#N)n(-c2ccccc2)c(=S)n(-c2ccccc2)c1=O	> 100 µM
CC(=O)[CH-]C(=O)c1ccccc1.CC(=O)[CH-]C(=O)c1ccccc1.CC(C)CCCC(C)[C@H]1CCC2[C@@H]3CCC4C[C@@H]([O-])CC[C@]4(C)C3CC[C@@]21C.CC(C)CCCC(C)[C@H]1CCC2[C@@H]3CCC4C[C@@H]([O-])CC[C@]4(C)C3CC[C@@]21C.Cl.[Ti+4] (some centres not stated)	> 25 µM
Oc1ccc2ccccc2c1N=Nc1ccc(N=Nc2ccccc2)cc1	> 100 µM
COc1cccc2c1[C@H](OC)[C@]13O[C@@]1(C2=O)[C@H](O)[C@H](C)[C@@](O)(C(=O)[C@@H]1O[C@H]1C)[C@@H]3O	2.52 µM

====

tested on: CAKI-1 renal; assay: NCI tumour cell line growth inhibition, 48 h
This listing pairs compounds with measured TGI.
Measured endpoint: TGI

Compound	Result value
CC(=O)OCC1OC(Sc2nc(-c3ccc(C)cc3)c(C#N)c(=O)n2C2OC(COC(C)=O)C(OC(C)=O)C(OC(C)=O)C2OC(C)=O)C(OC(C)=O)C(OC(C)=O)C1OC(C)=O (stereo not drawn)	> 100 µM
CCc1nc2cc(/C=C/C(=O)NO)c(F)cc2c(=O)n1CCc1ccccc1	6.2 µM
CCOC(=O)C1C(=O)CC(C)(O)C(C(=O)OCC)C1c1ccc(O)c(OC)c1 (stereo not drawn)	> 100 µM
CCCC(=O)C(CC)/C(CCC(=O)N(Cc1ccccc1)Cc1ccccc1)=N/NC(=O)C[N+](C)(C)C (stereo not drawn)	> 100 µM
CCCCCn1ncc(-c2c(O)c(O)cc3c(O)c(-c4c(C)cc5c(-c6cnn(CCCCC)n6)c(O)c(O)cc5c4O)c(C)cc23)n1	4.24 µM
COc1ccc(CNCCCN2C(=O)c3ccc4c5c(ccc(c35)C2=O)C(=O)N(CCCNCCCCNCCCN)C4=O)c(OC)c1OC	44.9 µM
NCC(=O)OCN1C(=O)C2C3C=CC(C2C1=O)C1C2C(=O)N(COC(=O)CN)C(=O)C2C31 (stereo not drawn)	> 100 µM
S=C1SC2(CCCCCC2)NC2=C1CCCCC2	> 100 µM
